System: SN12C renal
Experiment: NCI-60 one-dose screen, 48 h (100 = growth as untreated, 0 = no growth, -100 = all killed)
Settings: 10 µM unless noted
About 83,000 compounds went through this panel and 20% of them were active in at least one assay; those are over-represented in the sample as a whole.
Endpoint: growth (%)
// note: answer is a bare numeric in %

Solved cases below.
{"columns": ["Compound", "Target desc", "Measurement unit", "growth"],
 "data": [
  ["Cc1ccc(-n2c3c(c(-c4ccccc4)c2-c2ccccc2)C2=NCCN2C=N3)cc1", "SN12C renal", "%", 85],
  ["COc1cccc(-c2cc(C(=O)Nc3ccc(/C=C/c4ccc(OC5CCN(C)CC5)cc4)cc3)ccc2OC)c1", "SN12C renal", "%", -78.3],
  ["O=C1c2ccccc2CCC12OC2c1cn(-c2ccccc2)nc1-c1ccc(Cl)cc1 (centres undefined)", "SN12C renal", "%", 101]
]}

Shift focus to the following entry.
Summary: COc1cc2c(c(O)c1Cl)C(=O)c1c(O)cc(C[C@H](C)O)cc1[C@H]2[C@H]1c2cc(C[C@H](C)O)cc(O)c2C(=O)c2c1cc(OC)c(Cl)c2O , SN12C renal, growth = 8.13

---

Tested on: OVCAR-3 ovarian
Assay: NCI-60 one-dose screen, 48 h
Settings: 10 µM unless noted
This is part of a sample that, as a whole, favours compounds with a hit. Of some 83,000 tested, about 20% had one in any assay. Activity calls are given as the source filed them. Rule for the calls: active = growth percent below 10; inactive = the rest.
Tick one outcome: active, inactive

{"columns": ["Molecule", "Qualitative label"],
 "data": [
  ["CC(=O)c1ccc(NS(=O)(=O)c2cccc(C(=O)Nc3ccc(Br)cc3)c2)cc1", "inactive"]
]}

Recorded call for C[C@H]1[C@H](C)CC[C@]2(C(=O)Nc3ccc4ncccc4c3)CC[C@]3(C)C(=CC[C@@H]4[C@@]5(C)CCCNC(C)(C)[C@@H]5CC[C@]43C)[C@H]12 ?
active

Recorded call for Cn1c2ccccc2c2c3c(c4c5ccccc5n(C)c4c21)C(=O)OC3 ?
inactive

---

Test system: OVCAR-3 ovarian
Assay: NCI-60 one-dose screen, 48 h (100 = growth as untreated, 0 = no growth, -100 = all killed)
Settings: 10 µM unless noted
Compounds without any hit were thinned out: in the full panel of roughly 83,000, 20% have a hit.
# key: entry, value: growth
// note: answer is a bare numeric in %

Solved cases below.
{"columns": ["Compound", "Measurement unit", "growth"],
 "data": [
  ["N#Cc1c(-c2cccc([N+](=O)[O-])c2)nc(SCC(=O)c2ccc(Cl)cc2)[nH]c1=O", "%", 103],
  ["CC1=CCC(OC(=O)C(C)(O)CCC(O)(C(=O)OC2(C)C=CC(O)(C(C)C)CC2)C(C)C)(C(C)C)CC1 (centres undefined)", "%", 108],
  ["CCN(CC)CCn1c(=O)c2cc(OC)c(OC)cc2c2ccc3cc4c(cc3c21)OCO4", "%", 62.4],
  ["CCNc1nc2ccc(Nc3ccnc4cc(Cl)ccc34)cc2[nH]1", "%", 107],
  ["CCOc1ccc(/C=N/Nc2cc(C)nc3ccc(Br)cc23)cc1", "%", 105]
]}

Summary: COc1cc2oc(-c3cccc(C(=O)Nc4ccc(Br)cc4)c3)cc(=O)c2c(OC)c1OC , OVCAR-3 ovarian, growth = 76

Summary: O=C1c2ccccc2C(=O)c2c([N+](=O)[O-])ccc(Cl)c21 , OVCAR-3 ovarian, growth = 57.1

Summary: Cc1ncc(C(=O)Nc2ccc(CN3CCN(C)CC3)c(C(F)(F)F)c2)cc1C#Cc1cnc(N)cc1C#N , OVCAR-3 ovarian, growth = 39.5

Summary: C#CCNC(=O)[C@]1(C)CC[C@]2(C)CC[C@@H]3C(=CC[C@H]4[C@@]3(C)CC[C@H]3C(C)(C)C(=O)CC[C@]43C)[C@@H]2C1 , OVCAR-3 ovarian, growth = 95.7
